B1: Tissue-type plasminogen activator, P00750 (parent)
chain: MDAMKRGLCCVLLLCGAVFVSPSQEIHARFRRGARSYQVICRDEKTQMIYQQHQSWLRPVLRSNRVEYCWCNSGRAQCHSVPVKSCSEPRCFNGGTCQQALYFSDFVCQCPEGFAGKCCEIDTRATCYEDQGISYRGTWSTAESGAECTNWNSSALAQKPYSGRRPDAIRLGLGNHNYCRNPDRDSKPWCYVFKAGKYSSEFCSTPACSEGNSDCYFGNGSAYRGTHSLTESGASCLPWNSMILIGKVYTAQNPSAQALGLGKHNYCRNPDGDAKPWCHVLKNRRLTWEYCDVPSCSTCGLRQYSQPQFRIKGGLFADIASHPWQAAIFAKHRRSPGERFLCGGILISSCWILSAAHCFQERFPPHHLTVILGRTYRVVPGEEEQKFEVEKYIVHKEFDDDTYDNDIALLQLKSDSSRCAQESSVVRTVCLPPADLQLPDWTECELSGYGKHEALSPFYSERLKEAHVRLYPSSRCTSQHLLNRTVTDNMLCAGDTRSGGPQANLHDACQGDSGGPLVCLNDGRMTLVGIISWGLGCGQKDVPGVYTKVTNYLDWIRDNMRP

Variants of: B1
REPORTED CONDITIONS: Homo sapiens; pH 4.5; Thermal; DSC; Citric acid/trisodium citrate 0.1 M/0.1 M/; reversible: yes; structure 1TPK; whole UniProt chain shown
MEASURE: change of melting temperature, mutant - wild type (higher = more stable) (°C)
// note: answer is a bare numeric in °C

Consider the worked cases shown below.
V280L	-8.5
V280S	-11.4
V280I	0.5
V280M	-9.9
V280T	-4.3

Query variant follows.
Entry V280A — recorded change of melting temperature, mutant - wild type (higher = more stable) = -8.8
